The values you see were collected from the supplement of paper PMC10567573.

B1: DYRK1B (parent)
chain: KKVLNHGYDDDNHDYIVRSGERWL

# Variants of: B1
# assay_name: protein stability index of a GFP-peptide fusion (GPS, HEK-293T) (PSI 1-6); higher = more stable;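 note: lentivirally expressed fusions sorted by FACS into six bins by GFP to DsRed ratio, PSI derived from sequencing read proportions per bin multiplied by bin number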
# experimental_parameters: c terminus: a fixed tail appended
Measured protein stability index by item
I'd appreciate a reply containing only the number, no unit.

Answered examples (3):
- mutant_label: "D9S"
  protein stability index: 2.34
- mutant_label: "N12R"
  protein stability index: 3.27
- mutant_label: "K2G"
  protein stability index: 3.6

Give its protein stability index value. Item: `N5T` 2.57

Give its protein stability index value. Item: `N12A` 2.7

Give its protein stability index value. Item: `Y15E` 4.02

Give its protein stability index value. Item: `K1Y` 2.38

Give its protein stability index value. Item: `G20Q` 3.34

Give its protein stability index value. Item: `Y8E` 3.71

Give its protein stability index value. Item: `N5M` 2.8
